# System under test: human FAK (Homo sapiens (Human))
# Sequence (Q05397 whole entry): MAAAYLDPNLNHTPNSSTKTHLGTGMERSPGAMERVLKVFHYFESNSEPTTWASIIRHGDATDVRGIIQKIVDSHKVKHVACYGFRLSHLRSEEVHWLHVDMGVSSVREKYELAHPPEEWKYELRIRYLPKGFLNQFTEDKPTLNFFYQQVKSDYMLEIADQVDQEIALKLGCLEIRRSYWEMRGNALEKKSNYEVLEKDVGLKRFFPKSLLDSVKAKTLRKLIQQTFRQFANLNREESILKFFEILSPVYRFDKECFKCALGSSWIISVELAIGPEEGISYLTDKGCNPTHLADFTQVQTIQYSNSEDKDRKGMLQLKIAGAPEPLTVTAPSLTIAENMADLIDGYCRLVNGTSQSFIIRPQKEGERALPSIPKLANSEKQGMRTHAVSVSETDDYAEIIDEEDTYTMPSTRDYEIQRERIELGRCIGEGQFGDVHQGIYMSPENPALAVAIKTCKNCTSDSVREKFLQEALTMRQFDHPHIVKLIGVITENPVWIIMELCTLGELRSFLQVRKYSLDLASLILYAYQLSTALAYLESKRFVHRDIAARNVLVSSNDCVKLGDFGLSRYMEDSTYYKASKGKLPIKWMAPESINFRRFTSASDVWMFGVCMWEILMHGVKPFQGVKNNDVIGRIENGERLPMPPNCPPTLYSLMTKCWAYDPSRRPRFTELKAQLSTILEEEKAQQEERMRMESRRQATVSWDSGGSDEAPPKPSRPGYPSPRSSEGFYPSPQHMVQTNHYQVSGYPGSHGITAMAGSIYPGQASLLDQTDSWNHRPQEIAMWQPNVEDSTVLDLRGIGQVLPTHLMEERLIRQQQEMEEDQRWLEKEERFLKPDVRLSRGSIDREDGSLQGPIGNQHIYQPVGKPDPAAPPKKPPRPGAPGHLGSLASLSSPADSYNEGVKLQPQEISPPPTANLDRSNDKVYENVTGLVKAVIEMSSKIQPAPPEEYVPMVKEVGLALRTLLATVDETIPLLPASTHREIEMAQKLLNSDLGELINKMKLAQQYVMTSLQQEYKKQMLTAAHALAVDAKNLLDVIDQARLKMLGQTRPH
# Applied conditions: read-out: FAK IC50
# IC50 listing for each entry below
Quantity: IC50 (nM)

[[record]]
sample_smiles = "CS(=O)(=O)c1ccc(-c2cccn3nc(NCCc4ccccn4)nc23)cc1"
unit_text = "nM"
observed_measurement = 10000

[[record]]
sample_smiles = "CS(=O)(=O)c1ccc(-c2cccn3nc(Nc4cccc(CN5CCOCC5)c4)nc23)cc1"
unit_text = "nM"
observed_measurement = 953

[[record]]
sample_smiles = "COc1ncc(C(F)(F)F)cc1-c1cccn2nc(Nc3ccc(C4CCN(CC(=O)N(C)C)CC4)cc3)nc12"
unit_text = "nM"
observed_measurement = 10000

[[record]]
sample_smiles = "CN1CCN(c2cccc(Nc3nc4c(Nc5cccc(S(C)(=O)=O)c5)cccn4n3)c2)CC1"
unit_text = "nM"
observed_measurement = 3000

[[record]]
sample_smiles = "CS(=O)(=O)c1ccc(-c2cccn3nc(Nc4cccc(CN5CCS(=O)(=O)CC5)c4)nc23)cc1"
unit_text = "nM"
observed_measurement = 2000

[[record]]
sample_smiles = "CN1CCN(c2ccc(Nc3nc4cccc(-c5ccc(NS(C)(=O)=O)cc5)n4n3)cc2)CC1"
unit_text = "nM"
observed_measurement = 2280

[[record]]
sample_smiles = "CS(=O)(=O)c1ccccc1Nc1cccn2nc(Nc3ccc(OCCN4CCCC4)cc3)nc12"
unit_text = "nM"
observed_measurement = 1300

[[record]]
sample_smiles = "CN1CCN(c2ccc(Nc3nc4c(NCc5cccc(N(C)S(C)(=O)=O)c5)cccn4n3)cc2)CC1"
unit_text = "nM"
observed_measurement = 6500

